# METHOD NOTES: AUC (0 to infinity) in dog at 5 mg/kg, po
# Type: ADME, organism-based, Canis lupus familiaris
# STUDY CONDITIONS: in vivo
METRIC NAME: AUC(0-inf) (ng·h/mL)
All answers are understood in ng·h/mL, so give the number only.

I would be grateful if you could share the reported AUC(0-inf) for `CC1(C)CC(=O)c2c(C(F)(F)F)nn(Cc3ccc(C(=O)NO)cc3)c2C1` .
1150

###

# METHOD NOTES: Half life in mouse at 10 mg/kg, iv
# Format: ADME, organism-based
# STUDY CONDITIONS: in vivo
METRIC NAME: half-life (min)
Field format: number, assumed min, no unit text.

// lookup half-life for `CC1(C)CC(=O)c2c(C(F)(F)F)nn(Cc3ccc(C(=O)NO)cc3)c2C1`
17.4
